test system: A549; experiment: Cytotoxicity against human A549 cells assessed as cell viability after 72 hrs by resazurin reduction assay; format: functional, cell-based; details: A549, 72 h
Provide the recorded IC50 for the entries that follow.
Respond numerically; units are µM and should not be typed.

### Prompt Form field: reported IC50 of COc1ccc(/C=C\c2cc(OC)c(OC)c(OC)c2)cc1O
### Response 0.003

### Prompt Look at this compound and give its reported IC50. COc1cc(/C=C/C(=O)N2CCC=CC2=O)cc(OC)c1OC
### Response 6.54
